protocol_text: Growth inhibition of human Oral epithelial cell assessed as reduction in cell viability at 100 ug/ml by SRB colorimetric assay relative to control
Format: toxicity, cell-based
condition_set: oral epithelial cells, at 100 µg/mL, read-out: GI
Label scheme for inhibition at 100 ug/ml: lower than 60% is Not fulfilled, 60% and above is Fulfilled.

query: Does inhibition at 100 ug/ml meet or surpass 60% for NC1=Nc2nc3ccccc3n2C(c2ccc3ccccc3c2)N1 (stereo not drawn) ?
result: Not fulfilled

query: Also NC1=Nc2nc3ccccc3n2C(c2ccc(Cl)cc2Cl)N1 (stereo not drawn) ?
result: Fulfilled

query: Also COc1cc(C2NC(N)=Nc3nc4ccccc4n32)cc(OC)c1OC (stereo not drawn) ?
result: Not fulfilled

query: Also NC1=Nc2nc3ccccc3n2C(c2cccc(Cl)c2Cl)N1 (stereo not drawn) ?
result: Not fulfilled

query: Also NC1=NC(c2ccccc2)n2c(nc3ccccc32)N1 (stereo not drawn) ?
result: Not fulfilled

query: Also NC1=Nc2nc3ccccc3n2C(c2ccc([N+](=O)[O-])cc2)N1 (stereo not drawn) ?
result: Not fulfilled
